Let's look at some compounds and their measured IC50.
- Measured target: AR-VP16 (Homo sapiens)
- Sequence (P10275 560-920 limits assumed): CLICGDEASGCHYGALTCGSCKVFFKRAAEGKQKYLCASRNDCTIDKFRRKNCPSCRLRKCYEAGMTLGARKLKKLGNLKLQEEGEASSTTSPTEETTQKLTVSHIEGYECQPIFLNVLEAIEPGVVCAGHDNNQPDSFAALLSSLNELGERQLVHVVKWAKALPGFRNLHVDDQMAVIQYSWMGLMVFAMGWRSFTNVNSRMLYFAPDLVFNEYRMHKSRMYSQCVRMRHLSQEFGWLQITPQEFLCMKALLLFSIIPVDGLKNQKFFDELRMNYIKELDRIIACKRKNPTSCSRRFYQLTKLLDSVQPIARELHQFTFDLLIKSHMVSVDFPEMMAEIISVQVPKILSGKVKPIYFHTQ
- Measurement description: AR-VP16 DNA Binding Assay, antagonist mode (HepG2 cells, 0.1 nM R1881)

Guide cases for IC50, answers given:
Find IC50 (AR-VP16 (Homo sapiens)) for the entry CC(C)NC(=O)c1ccc(N2C(=S)N(c3cnc(C#N)c(C(F)(F)F)c3)C(=O)C23CCC3)cc1F
< 1000 nM

Provide the documented IC50 with AR-VP16 (Homo sapiens) as the system for Cc1cc(N2C(=O)C3(CCC3)N(c3ccc(C(=O)O)c(F)c3)C2=S)cnc1C#N
< 1000 nM

Enter reported IC50 observed with AR-VP16 (Homo sapiens) for Cc1cc(N2C(=O)C3(CCC3)N(c3ccc(OCCO)cc3)C2=S)cnc1C#N
< 1000 nM

Missing value: IC50, AR-VP16 (Homo sapiens), entry Cc1cc(N2C(=O)C3(CCC3)N(c3ccc(OC4CCSCC4)cc3)C2=S)cnc1C#N . Fill in?
< 1000 nM

Could you share what IC50 was measured for CN1CCN(c2ccc(N3C(=S)N(c4cnc(C#N)c(C(F)(F)F)c4)C(=O)C34CCC4)cc2)CC1 , tested on AR-VP16 (Homo sapiens)?
> 1000 nM

More entries:
So what IC50 did Cc1cc(N2C(=O)C3(CCC3)N(c3ccc(OCCc4ccccn4)c(F)c3)C2=S)cnc1C#N get with AR-VP16 (Homo sapiens)?
< 1000 nM

// fetch AR-VP16 (Homo sapiens) IC50 for N#Cc1ncc(N2C(=O)C3(CCC3)N(c3ccc(C(=O)NCCN4CCOCC4)c(F)c3)C2=S)cc1C(F)(F)F
< 1000 nM

Give the reported IC50 for CN1CCN(CCOc2ccc(N3C(=S)N(c4cnc(C#N)c(C(F)(F)F)c4)C(=O)C34CCC4)c(F)c2)CC1 (system: AR-VP16 (Homo sapiens)).
< 1000 nM

Query IC50 on AR-VP16 (Homo sapiens) for Cc1cc(N2C(=O)C3(CCC3)N(c3ccc(OC4CCN(CCO)CC4)cc3)C2=S)cnc1C#N
< 1000 nM

State its IC50 on AR-VP16 (Homo sapiens): N#Cc1ncc(N2C(=O)C3(CCC3)N(c3ccc(F)c(OCCc4cccnc4)c3)C2=S)cc1C(F)(F)F
> 1000 nM

Observed IC50 on AR-VP16 (Homo sapiens) for N#Cc1ncc(N2C(=O)C3(CCC3)N(c3ccc(F)cc3F)C2=S)cc1C(F)(F)F , please.
< 1000 nM

Item: COc1ccc(N2C(=S)N(c3cnc(C#N)c(C(F)(F)F)c3)C(=O)C23CCC3)cc1F Test system: AR-VP16 (Homo sapiens) Read-out: IC50 Value: ?
< 1000 nM

Form: Entry = N#Cc1ncc(N2C(=O)C3(CCC3)N(c3ccc4cn[nH]c4c3)C2=S)cc1C(F)(F)F | System = AR-VP16 (Homo sapiens) | IC50 = ____
< 1000 nM

Can you look up IC50 on AR-VP16 (Homo sapiens) for N#Cc1ncc(N2C(=O)C3(CCC3)N(c3ccc(C(=O)N4CCOCC4)c(F)c3)C2=S)cc1C(F)(F)F ?
> 1000 nM

Given the entry CNC(=O)c1ccc(N2C(=S)N(c3ccc(C#N)c(C(F)(F)F)n3)C(=O)C23CCC3)cc1F , what IC50 was observed with AR-VP16 (Homo sapiens)?
> 1000 nM

This collection of values is drawn from patent US9108944B2.
